# maps each entry to its EC50
Target: human Endothelial Differentiation G-protein Coupled Receptor 3 (EDG3), S1P3 receptor (Homo sapiens, UniProt Q99500)
Construct: expressed in transfected cells; host or cells: GeneBLAzer EDG3-Ga15-NFAT-bla HEK 293T
Sequence (Q99500 whole entry): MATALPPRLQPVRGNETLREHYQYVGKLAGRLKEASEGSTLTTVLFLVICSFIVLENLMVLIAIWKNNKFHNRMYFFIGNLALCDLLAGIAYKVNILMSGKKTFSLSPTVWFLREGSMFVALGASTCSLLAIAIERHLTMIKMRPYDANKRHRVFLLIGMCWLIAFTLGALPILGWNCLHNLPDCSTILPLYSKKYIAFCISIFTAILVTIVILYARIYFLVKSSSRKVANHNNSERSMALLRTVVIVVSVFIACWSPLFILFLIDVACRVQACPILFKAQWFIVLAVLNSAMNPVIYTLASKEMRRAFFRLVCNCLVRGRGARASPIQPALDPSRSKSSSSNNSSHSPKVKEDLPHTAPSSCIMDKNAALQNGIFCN
Assay: S1P3 Assay (GeneBLAzer EDG3-Ga15-NFAT-bla HEK 293T beta-lactamase reporter, agonist dose response)
Format: cell-based
Conditions: EDG3-Ga15-NFAT-bla HEK 293T cells, blue/green emission ratio, 10 point dose response, free base or salt form; read-out: pEC50 (S1P3 assay) (converted)
Counter-ions that a name gives are not always drawn.

Known results for molecules:
Query block: For the molecule CCc1c(CCN2CCC(C(=O)O)CC2)cccc1-c1cnc(-c2ccc(OC(C)C)c(C#N)c2)s1 [Example 37, trifluoroacetate] , report EC50.
Result block: 0.933 µM

Query block: For the molecule CCc1c(CCN2C[C@H](O)C[C@H]2C(=O)O)cccc1-c1nsc(-c2ccc(OC(C)C)c(Cl)c2)n1 [Example 69] , report EC50.
Result block: > 3.16 µM

Query block: For the molecule CCc1c(CN2CC(C(=O)O)C2)cccc1-c1cnc(-c2ccc(OC(C)C)c(Cl)c2)s1 [Example 39, trifluoroacetate] , report EC50.
Result block: > 10 µM

Query block: For the molecule CCc1c(CN2CC(C(=O)O)C2)cccc1-c1cnc(-c2ccc(OC(C)C)c(C(F)(F)F)c2)s1 [Example 31] , report EC50.
Result block: > 3.16 µM

Query block: For the molecule CCc1c(CN2CCC(CC(=O)O)CC2)cccc1-c1cnc(-c2ccc(OC(C)C)c(C#N)c2)s1 [Example 87] , report EC50.
Result block: > 10 µM

Next:
Query block: For the molecule Cc1c(CCN2CCC(C(=O)O)CC2)cccc1-c1nnc(-c2ccc(OC(C)C)c(Cl)c2)s1 [Example 58] , report EC50.
Result block: > 3.16 µM

Query block: For the molecule CCc1c(CCCN2CC(C(=O)O)C2)cccc1-c1cnc(-c2ccc(OC(C)C)c(C#N)c2)s1 [Example 93, trifluoroacetate] , report EC50.
Result block: > 3.16 µM

Query block: For the molecule CCc1c(CCN2CCC[C@H]2C(=O)O)cccc1-c1nnc(-c2ccc(OC(C)C)c(Cl)c2)s1 [Example 52] , report EC50.
Result block: > 10 µM

Query block: For the molecule CCc1c(CCN2CCC[C@H]2C(=O)O)cccc1-c1cnc(-c2ccc(OC(C)C)c(C#N)c2)s1 [Example 88, trifluoroacetate] , report EC50.
Result block: > 10 µM

Query block: For the molecule CCc1c(CCN2CCCC(C(=O)O)C2)cccc1-c1nsc(-c2ccc(OC(C)C)c(Cl)c2)n1 (stereo not drawn) [Example 70] , report EC50.
Result block: > 3.16 µM

Query block: For the molecule CCc1c(CN2CCC(C(=O)O)C2)cccc1-c1nnc(-c2ccc(OC(C)C)c(Cl)c2)s1 (stereo not drawn) [Example 44, trifluoroacetate] , report EC50.
Result block: > 3.16 µM

Query block: For the molecule CCc1c(CCN2CCC(C(=O)O)C2)cccc1-c1nsc(-c2ccc(CC(C)C)c(C#N)c2)n1 (stereo not drawn) [Example 78] , report EC50.
Result block: > 3.16 µM

Query block: For the molecule CCc1c(CCN2CCCC(C(=O)O)C2)cccc1-c1nnc(-c2ccc(CC(C)C)c(C#N)c2)s1 (stereo not drawn) [Example 63] , report EC50.
Result block: > 3.16 µM

Query block: For the molecule CCc1c(CCN2C[C@H](O)C[C@H]2C(=O)O)cccc1-c1nnc(-c2ccc(OC(C)C)c(Cl)c2)s1 [Example 55] , report EC50.
Result block: > 10 µM

Query block: For the molecule CCc1c(CN2CC[C@H](C(=O)O)C2)cccc1-c1cnc(-c2ccc(OC(C)C)c(C#N)c2)s1 [Example 84] , report EC50.
Result block: > 10 µM

====

Target: human Endothelial Differentiation G-protein Coupled Receptor 3 (EDG3), S1P3 receptor (Homo sapiens)
Construct: expressed in transfected cells; host or cells: GeneBLAzer EDG3-Ga15-NFAT-bla HEK 293T
Test: S1P3 Assay (GeneBLAzer EDG3-Ga15-NFAT-bla HEK 293T beta-lactamase reporter, agonist dose response)
Format: cell-based
Conditions: EDG3-Ga15-NFAT-bla HEK 293T cells, blue/green emission ratio, 10 point dose response, free base or salt form; read-out: pEC50 (S1P3 assay) (converted)
Where a name gives a salt, the structure may show the parent alone.
Attribute Measured: EC50

Known results for compounds:
Query block: For the compound CCc1c(CN2CCC(CC(=O)O)CC2)cccc1-c1nsc(-c2ccc(OC(C)C)c(C(F)(F)F)c2)n1 [Example 20] , report EC50.
Result block: > 10 µM

Query block: For the compound CCc1c(CN2CC(C(=O)O)C2)cccc1-c1cnc(-c2ccc(CC(C)C)c(C#N)c2)s1 [Example 43, trifluoroacetate] , report EC50.
Result block: > 3.16 µM

Query block: For the compound CCc1c(CCN2CCC(C(=O)O)C2)cccc1-c1nnc(-c2ccc(CC(C)C)c(C#N)c2)s1 (stereo not drawn) [Example 61] , report EC50.
Result block: > 3.16 µM

Query block: For the compound CCc1c(CN2CCC(C(=O)O)CC2)cccc1-c1cnc(-c2ccc(OC(C)C)c(Cl)c2)s1 [Example 36, trifluoroacetate] , report EC50.
Result block: > 10 µM

Query block: For the compound CCc1c(CN2CCC(C(=O)O)CC2)cccc1-c1cnc(-c2ccc(OC(C)C)c(C(F)(F)F)c2)s1 [Example 32] , report EC50.
Result block: > 3.16 µM

Query block: For the compound CCc1c(CN2CC(C(=O)O)C2)cccc1-c1nsc(-c2ccc(OC(C)C)c(C#N)c2)n1 [Example 17, trifluoroacetate] , report EC50.
Result block: > 3.16 µM

Query block: For the compound CCc1c(CCN2CCCC(C(=O)O)C2)cccc1-c1cnc(-c2ccc(OC(C)C)c(C#N)c2)s1 (stereo not drawn) [Example 92] , report EC50.
Result block: > 3.16 µM

Query block: For the compound CCc1c(CN2CCC(C(=O)O)CC2)cccc1-c1nsc(-c2ccc(CC(C)C)c(C#N)c2)n1 [Example 28] , report EC50.
Result block: > 10 µM

Next:
Query block: For the compound CCc1c(CN2CCC(C(=O)O)CC2)cccc1-c1nsc(-c2ccc(OC(C)C)c(C(F)(F)F)c2)n1 [Example 18, trifluoroacetate] , report EC50.
Result block: > 3.16 µM

Query block: For the compound CCc1c(CCN2CC(C(=O)O)C2)cccc1-c1nnc(-c2ccc(OC(C)C)c(C(F)(F)F)c2)s1 [Example 7, trifluoroacetate] , report EC50.
Result block: > 3.16 µM

Query block: For the compound CCc1c(CCN2CC(C(=O)O)C2)cccc1-c1nnc(-c2ccc(CC(C)C)c(C#N)c2)s1 [Example 10] , report EC50.
Result block: > 3.16 µM

Query block: For the compound CCc1c(CN2CCCC(C(=O)O)C2)cccc1-c1nnc(-c2ccc(OC(C)C)c(Cl)c2)s1 (stereo not drawn) [Example 46] , report EC50.
Result block: > 10 µM

Query block: For the compound CCc1c(CN2CCC(C(=O)O)C2)cccc1-c1cnc(-c2ccc(OC(C)C)c(C#N)c2)s1 (stereo not drawn) [Example 83] , report EC50.
Result block: > 10 µM

Query block: For the compound CCc1c(CCN2CCCC(C(=O)O)C2)cccc1-c1nnc(-c2ccc(OC(C)C)c(Cl)c2)s1 (stereo not drawn) [Example 56] , report EC50.
Result block: > 3.16 µM

Query block: For the compound CCc1c(CCN2CCC(C(=O)O)C2)cccc1-c1nsc(-c2ccc(OC(C)C)c(Cl)c2)n1 (stereo not drawn) [Example 67] , report EC50.
Result block: > 3.16 µM

====

Biological target: human Endothelial Differentiation Gene 1 (EDG1), S1P1 receptor (Homo sapiens)
Construct: TEV protease site; Gal4-VP16 transcription factor; expressed in transfected cells; host or cells: EDG1-bla/U2OS (Tango GPCR-bla U2OS parental cell line)
Sequence (P21453 whole entry, the tested form may be a part): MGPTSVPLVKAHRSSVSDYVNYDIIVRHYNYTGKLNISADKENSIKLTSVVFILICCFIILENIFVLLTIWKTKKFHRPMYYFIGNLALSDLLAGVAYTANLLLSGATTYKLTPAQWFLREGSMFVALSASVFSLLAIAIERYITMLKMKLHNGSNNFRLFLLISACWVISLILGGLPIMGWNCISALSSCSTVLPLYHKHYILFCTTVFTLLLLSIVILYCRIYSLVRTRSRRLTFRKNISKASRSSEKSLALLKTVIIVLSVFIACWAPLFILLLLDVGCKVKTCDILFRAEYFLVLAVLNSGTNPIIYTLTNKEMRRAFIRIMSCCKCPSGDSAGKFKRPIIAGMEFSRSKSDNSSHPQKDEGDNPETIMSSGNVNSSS
Assay: S1P1 Assay (Tango EDG1-bla/U2OS beta-lactamase reporter, agonist dose response)
Type: cell-based
Conditions: EDG1-bla/U2OS cells, blue/green emission ratio, 10 point dose response, free base or salt form; read-out: pEC50 (S1P1 assay) (converted)
Where a name gives a salt, the structure may show the parent alone.
# maps each entry to its EC50

Known results for molecules:
Query block: For the molecule CCc1c(CCN2CCC(C(=O)O)CC2)cccc1-c1nsc(-c2cnc(OC(C)C)c(Cl)c2)n1 [Example 75, trifluoroacetate] , report EC50.
Result block: ≤ 0.01 µM

Query block: For the molecule CCc1c(CCN2CC[C@H](C(=O)O)C2)cccc1-c1nnc(-c2ccc(CC(C)C)c(C#N)c2)s1 [Example 62] , report EC50.
Result block: < 0.001 µM

Next:
Query block: For the molecule CCc1c(CCN2CCC[C@H]2C(=O)O)cccc1-c1cnc(-c2ccc(OC(C)C)c(C#N)c2)s1 [Example 88, trifluoroacetate] , report EC50.
Result block: ≤ 0.01 µM

Query block: For the molecule CCc1c(-c2nsc(-c3ccc(OC(C)C)c(Cl)c3)n2)cccc1C1CCN(CCCC(=O)O)CC1 [Example 102, trifluoroacetate] , report EC50.
Result block: ≤ 0.01 µM

Query block: For the molecule CCc1c(CN2CC(C(=O)O)C2)cccc1-c1cnc(-c2ccc(OC(C)C)c(C#N)c2)s1 [Example 38, trifluoroacetate] , report EC50.
Result block: < 0.001 µM

Query block: For the molecule CCc1c(CN2CCCC(C(=O)O)C2)cccc1-c1nnc(-c2ccc(OC(C)C)c(Cl)c2)s1 (stereo not shown) [Example 46] , report EC50.
Result block: < 0.1 µM

Query block: For the molecule CCc1c(CC2CCN(CCC(=O)O)CC2)cccc1-c1nsc(-c2ccc(OC(C)C)c(Cl)c2)n1 [Example 106, trifluoroacetate] , report EC50.
Result block: < 0.1 µM
